Origin of the recorded values: ChEMBL document CHEMBL1287771

tested on: Streptococcus pyogenes; assay: Antibacterial activity against efflux-resistant Streptococcus pyogenes B0545 by agar microdilution method; assay type: functional

Compound	Readout Qualifier	MIC, µg/mL
C=CCO[C@]1(C)C[C@@H](C)C(=O)N[C@H](C)[C@H](O)[C@@](C)(O)[C@@H](CC)OC(=O)[C@H](C)C(=O)[C@H](C)[C@H]1O[C@@H]1O[C@H](C)C[C@H](N(C)C)[C@H]1O	>	64
CC[C@H]1OC(=O)[C@H](C)[C@@H](O[C@@H]2C[C@@](C)(OC)[C@@H](O)[C@H](C)O2)[C@H](C)[C@@H](O[C@@H]2O[C@H](C)C[C@H](N(C)C)[C@H]2O)[C@](C)(OC/C=C/NCCc2ccc([N+](=O)[O-])cc2)C[C@@H](C)NC(=O)[C@H](C)[C@H](O)[C@@]1(C)O	=	16
CC[C@H]1OC(=O)[C@H](C)C(=O)[C@H](C)[C@@H](O[C@@H]2O[C@H](C)C[C@H](N(C)C)[C@H]2O)[C@](C)(OCC(O)CNCC(C)C)C[C@@H](C)NC(=O)[C@H](C)[C@H](O)[C@@]1(C)O (stereo partly drawn)	=	8
C=CCO[C@]1(C)C[C@@H](C)NC(=O)[C@H](C)[C@H](O)[C@@](C)(O)[C@@H](CC)OC(=O)[C@H](C)[C@@H](O[C@@H]2C[C@@](C)(OC)[C@@H](O)[C@H](C)O2)[C@H](C)[C@H]1O[C@@H]1O[C@H](C)C[C@H](N(C)C)[C@H]1O	=	16
CC[C@H]1OC(=O)[C@H](C)C(=O)[C@H](C)[C@@H](O[C@@H]2O[C@H](C)C[C@H](N(C)C)[C@H]2O)[C@](C)(OCC(O)CNCCc2ccccc2)C[C@@H](C)NC(=O)[C@H](C)[C@H](O)[C@@]1(C)O (stereo partly drawn)	=	1
CC[C@H]1OC(=O)[C@H](C)C(=O)[C@H](C)[C@@H](O[C@@H]2O[C@H](C)C[C@H](N(C)C)[C@H]2O)[C@](C)(OCC(O)CNCCc2cccnc2)C[C@@H](C)NC(=O)[C@H](C)[C@H](O)[C@@]1(C)O (stereo partly drawn)	=	2
CC[C@H]1OC(=O)[C@H](C)[C@@H](O[C@@H]2C[C@@](C)(OC)[C@@H](O)[C@H](C)O2)[C@H](C)[C@@H](O[C@@H]2O[C@H](C)C[C@H](N(C)C)[C@H]2O)[C@](C)(OC/C=C/NCCc2ccc([N+](=O)[O-])cc2)C[C@@H](C)C(=O)N[C@H](C)[C@H](O)[C@@]1(C)O	=	16
CC[C@H]1OC(=O)[C@H](C)C(=O)[C@H](C)[C@@H](O[C@@H]2O[C@H](C)C[C@H](N(C)C)[C@H]2O)[C@](C)(OCC(O)CN2CCN(c3ccc4c(c3F)c(=O)c(C(=O)OC)cn4C3CC3)CC2)C[C@@H](C)NC(=O)[C@H](C)[C@H](O)[C@@]1(C)O (stereo partly drawn)	=	16
